Tested on: peripheral blood mononuclear cells (PBMC)
assay.name: Peripheral blood mononuclear cell (PBMC) assay
Type: cell-based
measurement.setup: PBMC, interferon-alpha level; 1 h with compounds, washed, 15 hour incubation; average of one to four donors; read-out: PBMC EC50 (μM) IFN-α
measure.name: EC50
Could you give the number and then its unit, please?

compound | EC50
CC(C)(C)C(=O)OCOP1(=O)OC[C@H]2C[C@@H](n3cnc4c(N)ncnc43)C(F)[C@H]2OP(=O)(OCOC(=O)C(C)(C)C)OC[C@H]2O[C@@H](n3cnc4c(N)ncnc43)[C@@H](F)C2O1 (single isomer, unassigned) [Compound 136d] | 0.9 µM
CCC(C)(C)C(=O)OCOP1(=O)OC[C@H]2O[C@@H](n3cnc4c(N)ncnc43)C(F)C2OP(=O)(OCOC(=O)C(C)(C)CC)OC[C@H]2C[C@@H](n3cnc4c(N)ncnc43)C(F)C2O1 (stereo partly drawn) [Compound 144b] | 0.04 µM

Known value: peripheral blood mononuclear cells (PBMC) EC50 of the compound CC1(C(=O)OCOP2(=O)OC[C@H]3O[C@@H](n4cnc5c(N)ncnc54)C(F)C3OP(=O)(OCOC(=O)C3(C)CCCCC3)OC[C@H]3C[C@@H](n4cnc5c(N)ncnc54)C(F)C3O2)CCCCC1 (stereo partly drawn) [Compound 145c] equals 0.04 µM

Value source: patent US11766447B2
